Taken from patent US20190062305A1.

# Test summary: Metabolic stability in human liver microsomes, unbound intrinsic clearance (Cl int/fu mic)
# Format: in vitro ADME
# Experimental parameters: human, liver microsomes, pH 7.4, human liver microsomes 0.25 mg/mL, 0.5 μM compound, NADPH, read-out: Cl int, mic unb. (h) [l/h/kg] (unbound intrinsic clearance, human)
Where a name gives a salt, the structure may show the parent alone.

Molecule	CLint scaled at 0.5 μM
COc1nc(Nc2ccc(F)cc2)c(F)cc1CNC(=O)[C@@H]1CCCN1	< 5 L/h/kg
COc1nc(OCC(F)F)c(F)cc1CNC(=O)[C@@H]1CCCN1	< 5 L/h/kg
COc1nc(N2CCCC(F)C2)c(F)cc1CNC(=O)[C@@H]1CCCN1 (some centres unmarked)	< 5 L/h/kg
COc1nc(NCC2CCC(F)(F)CC2)c(F)cc1CNC(=O)[C@@H]1CCCN1	< 5 L/h/kg
COc1nc(O[C@H]2CC[C@H](C(F)(F)F)CC2)c(F)cc1CNC(=O)[C@@H]1CCCN1C	5 to 50 L/h/kg
COc1nc(N2CC(Oc3ccc(Cl)cc3)C2)c(F)cc1CNC(=O)[C@@H]1CCCN1	50 to 500 L/h/kg
COc1nc(OCC2(C(F)(F)F)CC2)c(F)cc1CN(C)C(=O)[C@@H]1CCCN1 [Example 76, Hydrochloride]	< 5 L/h/kg
COc1nc(N2CCC(F)(F)CC2)c(F)cc1CN(C)C(=O)[C@@H]1CCCN1	< 5 L/h/kg
COc1nc(OC2CCC(F)(F)CC2)c(F)cc1CNC(=O)[C@@H]1C[C@@H](F)CN1	< 5 L/h/kg
COc1nc(OC2CCC(O)CC2)c(F)cc1CNC(=O)[C@@H]1CCCN1 (some centres unmarked)	< 5 L/h/kg
COc1nc(Cc2ccccc2)c(F)cc1CNC(=O)[C@@H]1CCCN1	< 5 L/h/kg
COc1nc(OCC2CCC(C(F)(F)F)CC2)c(F)cc1CNC(=O)[C@@H]1CCCN1 (some centres unmarked)	50 to 500 L/h/kg
COc1nc(N2CCOC(c3ccccc3)C2)c(F)cc1CNC(=O)[C@@H]1CCCN1 (some centres unmarked)	5 to 50 L/h/kg
COc1nc(O[C@H]2CCC[C@@H](C(F)(F)F)C2)c(F)cc1CNC(=O)[C@@H]1CCCN1 (relative stereo) [Example 88, Hydrochloride]	5 to 50 L/h/kg
COc1nc(OC2CCC(F)(F)CC2)c(F)cc1CN(C)C(=O)[C@@H]1CCCN1 [Example 114, Hydrochloride]	5 to 50 L/h/kg
COc1nc(OCC(F)(F)F)c(F)cc1CN(C)C(=O)[C@@H]1CCCN1C [Example 113, Hydrochloride]	< 5 L/h/kg
COc1nc(OCCCC(F)(F)F)c(F)cc1CNC(=O)[C@@H]1CCCN1	< 5 L/h/kg
COc1nc(OC2CC(F)(F)C2)c(F)cc1CN(C)C(=O)[C@@H]1CCCN1C [Example 99, Hydrochloride]	< 5 L/h/kg
COc1nc(NCC2(C(F)(F)F)CC2)c(F)cc1CNC(=O)[C@@H]1CCCN1	< 5 L/h/kg
COc1nc(OC2CC(F)(F)C2)c(F)cc1CNC(=O)[C@@H]1C[C@@H](F)CN1 [Example 94, Hydrochloride]	< 5 L/h/kg
COc1nc(OCC2(C(F)F)CC2)c(F)cc1CNC(=O)[C@@H]1CCCN1C	< 5 L/h/kg
COc1nc(OCC(C)CC(F)(F)F)c(F)cc1CNC(=O)[C@@H]1CCCN1 (some centres unmarked)	5 to 50 L/h/kg
COc1nc(N2CCC(F)C2)c(F)cc1CNC(=O)[C@@H]1CCCN1 (some centres unmarked)	5 to 50 L/h/kg
COc1nc(O[C@H]2CC[C@@H](C(F)(F)F)CC2)c(F)cc1CNC(=O)[C@@H]1CCCN1	5 to 50 L/h/kg
COc1nc(O[C@H]2CCC(F)(F)C2)c(F)cc1CNC(=O)[C@@H]1CCCN1C [Example 26, Hydrochloride]	< 5 L/h/kg
COc1nc(OC[C@H]2CCC(F)(F)C2)c(F)cc1CNC(=O)[C@@H]1CCCN1	< 5 L/h/kg
COc1nc(C2=CCC(C(F)(F)F)CC2)c(F)cc1CNC(=O)[C@@H]1CCCN1 (some centres unmarked)	5 to 50 L/h/kg
COc1nc(NCCCc2ccccc2)c(F)cc1CNC(=O)[C@@H]1CCCN1	5 to 50 L/h/kg
COc1nc(N2CCC(Oc3ccccc3)CC2)c(F)cc1CNC(=O)[C@@H]1CCCN1	50 to 500 L/h/kg
COc1nc(OCC(C)(C(F)(F)F)C(F)(F)F)c(F)cc1CNC(=O)[C@@H]1CCCN1 [Example 109, Hydrochloride]	50 to 500 L/h/kg
COc1nc(NC2CCC2)c(F)cc1CNC(=O)[C@@H]1CCCN1	< 5 L/h/kg
COc1nc(NC2CCC(F)(F)CC2)c(F)cc1CN(C)C(=O)[C@@H]1CCCN1	< 5 L/h/kg

###

Parameter: EC50. Scope: all listed entries.
# Assay system: 5-HT2C receptor (Homo sapiens, UniProt P28335)
# Sequence (P28335 33-458): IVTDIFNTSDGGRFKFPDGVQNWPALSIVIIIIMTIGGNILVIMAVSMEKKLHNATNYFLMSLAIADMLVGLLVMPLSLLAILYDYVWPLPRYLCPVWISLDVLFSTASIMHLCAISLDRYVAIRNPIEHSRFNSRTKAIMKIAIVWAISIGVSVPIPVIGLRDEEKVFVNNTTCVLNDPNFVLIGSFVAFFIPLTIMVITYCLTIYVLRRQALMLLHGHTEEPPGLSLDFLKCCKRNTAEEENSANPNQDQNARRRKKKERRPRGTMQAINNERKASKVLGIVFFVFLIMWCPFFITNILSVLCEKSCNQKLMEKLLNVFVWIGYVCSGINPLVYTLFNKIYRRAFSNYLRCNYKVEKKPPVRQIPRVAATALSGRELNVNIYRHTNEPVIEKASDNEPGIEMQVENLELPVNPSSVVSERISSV
# Sequence (P32121 whole entry partner): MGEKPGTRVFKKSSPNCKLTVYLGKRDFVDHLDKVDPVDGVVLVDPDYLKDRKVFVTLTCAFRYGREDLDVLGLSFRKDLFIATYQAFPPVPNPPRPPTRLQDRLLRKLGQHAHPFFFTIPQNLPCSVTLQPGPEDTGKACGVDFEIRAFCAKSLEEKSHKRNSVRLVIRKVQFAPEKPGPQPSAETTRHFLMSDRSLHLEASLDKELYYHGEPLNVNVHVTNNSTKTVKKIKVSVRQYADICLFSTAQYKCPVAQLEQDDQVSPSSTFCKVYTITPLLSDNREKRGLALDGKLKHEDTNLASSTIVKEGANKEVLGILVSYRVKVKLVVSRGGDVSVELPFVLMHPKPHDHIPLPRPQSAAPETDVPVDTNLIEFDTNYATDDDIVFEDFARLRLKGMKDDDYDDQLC
# Test summary: Human 5-HT2C functional assay (beta-arrestin2 recruitment, U2OS_HTR2C_β-Arrestin cells)
# Experimental parameters: beta-arrestin2 recruitment, U2OS_HTR2C_β-Arrestin cells, 1.5 h incubation; read-out: EC50 5-HT2C (potency in functional assay)
Where a name gives a salt, the structure may show the parent alone.

Compound	EC50
COc1nc(OCC2CC2(F)F)c(F)cc1CN(C)C(=O)[C@@H]1CCCN1 (stereo partly shown) [Example 77, Hydrochloride]	< 20 nM
COc1nc(OC2CCC(F)(F)C2)c(F)cc1CNC(=O)[C@@H]1CCCN1C (stereo partly shown)	< 20 nM
COc1nc(OCC2CC(F)(F)C2(F)F)c(F)cc1CNC(=O)[C@@H]1CCCN1C (stereo partly shown) [Example 90, Hydrochloride]	< 20 nM
COc1nc(N2CC(C)OC(C)C2)c(F)cc1CNC(=O)[C@@H]1CCCN1 (stereo partly shown)	200 to 1000 nM

###

Listed next: entries and their corresponding CLint scaled at 0.5 μM.
# Test summary: Metabolic stability in human liver microsomes, unbound intrinsic clearance (Cl int/fu mic)
# Type: in vitro ADME
# Experimental parameters: human, liver microsomes, pH 7.4, human liver microsomes 0.25 mg/mL, 0.5 μM compound, NADPH, read-out: Cl int, mic unb. (h) [l/h/kg] (unbound intrinsic clearance, human)
Where a name gives a salt, the structure may show the parent alone.
Measured metric: CLint scaled at 0.5 μM

Molecule	Meas value
COc1nc(OCC2CCC(F)(F)C2)c(F)cc1CNC(=O)[C@@H]1CCCN1 (some centres unmarked)	< 5 L/h/kg
COc1nc(N(C)C2CCC(F)(F)CC2)c(F)cc1CNC(=O)[C@@H]1CCCN1	5 to 50 L/h/kg
COc1nc(N(C)Cc2ccccc2)c(F)cc1CNC(=O)[C@@H]1CCCN1	5 to 50 L/h/kg
COCCCCc1nc(OC)c(CNC(=O)[C@@H]2CCCN2)cc1F	< 5 L/h/kg
COc1nc(OCC2CC2(F)F)c(F)cc1CN(C)C(=O)[C@@H]1CCCN1 (some centres unmarked) [Example 77, Hydrochloride]	< 5 L/h/kg
COc1nc(OC2CC(F)(F)C2(F)F)c(F)cc1CNC(=O)[C@@H]1CCCN1 (some centres unmarked)	< 5 L/h/kg
COc1nc(OC2CCC(C(F)(F)F)CC2)c(F)cc1CNC(=O)[C@@H]1C[C@@H](C)CN1C (some centres unmarked) [Example 62, Hydrochloride]	50 to 500 L/h/kg
COc1nc(OCC2CC(F)(F)C2)c(F)cc1CNC(=O)[C@@H]1CCCN1	< 5 L/h/kg
COc1nc(OC2CCC(C(F)(F)F)CC2)c(F)cc1CNC(=O)[C@@H]1CCN1 (some centres unmarked)	5 to 50 L/h/kg
COc1nc(OC2CCC(F)(F)CC2)cnc1CNC(=O)[C@@H]1CCCN1	< 5 L/h/kg
COc1nc(O[C@@H]2CCC(F)(F)C2)c(F)cc1CNC(=O)[C@@H]1CCCN1C [Example 27, Hydrochloride]	< 5 L/h/kg
COc1nc(OC2CCCC3C2C3(F)F)c(F)cc1CNC(=O)[C@@H]1CCCN1 (some centres unmarked)	5 to 50 L/h/kg
COc1nc(OC2CCC(F)(F)C2)c(F)cc1CNC(=O)[C@@H]1CCCN1C (some centres unmarked)	< 5 L/h/kg
COc1nc(OC[C@H]2CCC(F)(F)C2)c(F)cc1CNC(=O)[C@@H]1CCCN1C	5 to 50 L/h/kg
COc1nc(OC2CCC(OC)CC2)c(F)cc1CNC(=O)[C@@H]1CCCN1C (some centres unmarked)	< 5 L/h/kg
COc1nc(OCC2CC(F)(F)C2(F)F)c(F)cc1CNC(=O)[C@@H]1CCCN1C (some centres unmarked) [Example 90, Hydrochloride]	< 5 L/h/kg
COc1nc(OC2CCCC2F)c(F)cc1CNC(=O)[C@@H]1CCCN1 (some centres unmarked)	< 5 L/h/kg
